# Test target: T1, human-CD40-monomer protein (human, UniProt P25942 21-193, limits assumed)
# T1 construct: Soluble monomer generated in house, used as SPR analyte; also called hCD40; hCD40-monomer
# T1 sequence (P25942 21-193 limits assumed): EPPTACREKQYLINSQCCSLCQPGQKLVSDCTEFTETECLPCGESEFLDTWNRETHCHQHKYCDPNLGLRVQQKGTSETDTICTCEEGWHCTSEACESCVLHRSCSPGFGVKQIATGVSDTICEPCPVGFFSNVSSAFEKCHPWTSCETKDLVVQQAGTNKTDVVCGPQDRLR
# Experimental protocol: SPR, Ab captured on protein A, 1 uM hCD40 monomer, single concentration, apparent value
We begin with a simple list: items and their reported kon.

ADX_Y1258.ZZ0-1 (antibody, V domains shown, Mouse anti-human-CD40 antibody) VH: QVQLQQSGAELAKPGSSVKMSCKASGYAFTSYWMHWIKQRPGQGLEWIGFINPTTGYSEYNQKFKDKATLTADKSSSTAYMQLNSLTSEDSAVYFCARWGLPPFAYWGQGTLVTVSA VL: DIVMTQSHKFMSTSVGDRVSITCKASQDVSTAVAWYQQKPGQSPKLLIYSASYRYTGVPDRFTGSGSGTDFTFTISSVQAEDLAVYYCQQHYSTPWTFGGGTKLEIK = 17000 M⁻¹ s⁻¹
ADX_Y1267.ZZ0-1 (antibody, V domains shown, Mouse anti-human-CD40 antibody) VH: QVQLQQPGAELVKPGASVRLSCEASGYSFTSYWMHWVKQRPGQGLEWIGQINPSNGRTQYNEKFKSMATLTVDKSSSTAYIQLNSLTSEDSAVYYCARWGLQPFAYWGQGTLVTVSA VL: DIVMTQSHKFMSTSVGDRVSITCKASQDVSTAVAWYQQKPGQSPKLLIYSASYRYTGVPDRFTGSGSGTDFTFTISSVQAEDLAVYYCLQHYTTPWTFGGGTKLEIK = 370000 M⁻¹ s⁻¹
ADX_Y1260.ZZ0-1 (antibody, V domains shown, Mouse anti-human-CD40 antibody) VH: QVQLQQSGAELTKPGASVKMSCKASGYSFTSYWMHWVKQRPGQGLEWIGSINPSTGYTEDNQKFKDKATLTADKSSTTAYMQLSSLTSEDSAVYYCARWGLPPFAYWGQGTLVTVSA VL: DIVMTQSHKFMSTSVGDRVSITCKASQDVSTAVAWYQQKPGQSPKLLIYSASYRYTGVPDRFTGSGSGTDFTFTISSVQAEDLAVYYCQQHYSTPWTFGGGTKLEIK = 52000 M⁻¹ s⁻¹
ADX_Y1072.ZZ0-1 (antibody, V domains shown, Mouse anti-human-CD40 antibody) VH: QVQFQQSGAELARPGASVKLSCKASGYTFTSYWMQWVKQRPGQGLEWIGTIYPGDGDSRYNQKFKGKALLTADKSSSIAYMQLNSLASEDSAVYFCARFSLYDGYPYYFDYWGQGTTLTVSS VL: DVVMTQTPLSLPVSLGDQASISCRSSQSLVHRNGNTYLHWYLQKPGQSPKLLIYRVSNRFSGVPDRFSGSGSGTDFTLKISRVEAEDLGIYFCSQSTHFPYTFGGGTKLEIK = 77000 M⁻¹ s⁻¹

Just so you know, measured kon for ADX_Y1268.ZZ0-1 (antibody, V domains shown, Mouse anti-human-CD40 antibody) VH: QVQLQQPGAELVKPGASVRLSCKASGYAFTSYWMHWVKQRPGQGLEWIGQINPSNGRSQYNEKFKTMATLTVDKSSSTAYIQLSSLTSEDSAVYYCARWGLQPFAYWGQGTLVTVSA VL: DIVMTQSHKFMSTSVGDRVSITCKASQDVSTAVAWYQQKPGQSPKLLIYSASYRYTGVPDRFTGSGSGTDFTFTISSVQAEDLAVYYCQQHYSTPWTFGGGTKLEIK came out at 320000 M⁻¹ s⁻¹

Just so you know, measured kon for ADX_Y1238.ZZ0-1 (antibody, V domains shown, Mouse anti-human-CD40 antibody) VH: QVQLQQSGAELVRPGTSVKVSCKASGYAFTNYLIEWVKQRPGQGLEWIGVINPGSGGTNYNEKFKGKATLTADKSSSTAYMQLSSLTSDDSAVYFCARSQLGRRFDYWGQGTTLTVSS VL: DIVMTQSHKFMSTSVGDRVSITCKASQDVRTGVAWYQQKPGQSPKLLIYSASYRNTGVPDRFTGSRSGTDFTFTISSVQAEDLAVYYCQQHYSPPYTFGGGTKLEIK came out at 55000 M⁻¹ s⁻¹

Just so you know, measured kon for ADX_Y1262.ZZ0-1 (antibody, V domains shown, Mouse anti-human-CD40 antibody) VH: QVQLQQSGAELAKPGSSVKMSCKASGYAFTSYWMHWVKQRPGQGLEWIGYINPTTGYSAYNQKFKDKATLTADKSSSTAYMQLNSLTSEDSAVYYCARWDPRPFAYWGQGTLVTVSA VL: DIVMTQSHKFMSTSVGDRVSITCKASQDVSTAVAWYQQKPGQSPKLLIYSASYRYTGVPDRFTGSGYGTDFTFTISSVQAEDLAVYYCQQHYSTPWTFGGGTKLEIK came out at 370000 M⁻¹ s⁻¹

Just so you know, measured kon for ADX_Y1264.ZZ0-1 (antibody, V domains shown, Mouse anti-human-CD40 antibody) VH: EVQLQQSGTVLARPGASVKMSCRASGYSFSSYWMHWVKQRPGQGLEWIGSINPGNSDAFYNQQFKGKAKLTAVTSASTAYMELSSLTNEDSAVYYCTRWGLPPFAYWGQGTLVTVSA VL: DIVMTQSHKFMSTSVGDRVSITCKASQDVSTAVAWYQQKPGQSPKLLIYSASYRYTGVPDRFTGSGSGTDFTFTISSVQAEDLAVYYCHQHYSTPWTFGGGTKLEIK came out at 14000 M⁻¹ s⁻¹
